Source of measurements: patent EP3575287A1

tested.target: human NAPE-PLD (Homo sapiens)
pIC50: −log10 of the molar value.
Rule: met for pIC50 not less than 6, not met for anything less.

Here are 8 molecules together with their reported answers.
CCN(CCc1ccccc1)c1nc(C(=O)NCC2CC2)cc(N2CCOCC2)n1; met
CCCCNC(=O)c1cc(N2CCOCC2)nc(N(C)CCc2ccccc2)n1; not met
C#CCNC(=O)c1cc(N2CC[C@H](O)C2)nc(N2CCN(Cc3ccc(C4(C(F)(F)F)N=N4)cc3)CC2)n1; met
CN(CCc1ccccc1)c1nc(C(=O)NCC2CC2)cc(N2CCNCC2)n1; not met
CN(CCc1ccccc1)c1nc(C(=O)NCC2CC2)cc(N2CCC(N(C)C)C2)n1 (stereo not drawn); not met
CN(CCc1ccccc1)c1nc(C(=O)NCC2CC2)cc(N2CCSCC2)n1; not met
CCCNC(=O)c1cc(N2CCOCC2)nc(N(C)CCc2ccccc2)n1; not met
CN(CCc1ccccc1)c1nc(C(=O)NCC2CC2)cc(N2CCC2)n1; met

Ask: # bool: pIC50 of O=C(NCC1CC1)c1cc(N2CCOCC2)nc(N2CCNC(c3ccccc3)C2)n1 (stereo not drawn) >= 6
Result: not met

Ask: # bool: pIC50 of CN(CCc1ccccc1)c1nc(C(=O)NCC2CC2)cc(N2CC3(COC3)C2)n1 >= 6
Result: not met

###

tested.target: human NAPE-PLD (Homo sapiens, UniProt Q6IQ20)
Sequence (Q6IQ20 whole entry): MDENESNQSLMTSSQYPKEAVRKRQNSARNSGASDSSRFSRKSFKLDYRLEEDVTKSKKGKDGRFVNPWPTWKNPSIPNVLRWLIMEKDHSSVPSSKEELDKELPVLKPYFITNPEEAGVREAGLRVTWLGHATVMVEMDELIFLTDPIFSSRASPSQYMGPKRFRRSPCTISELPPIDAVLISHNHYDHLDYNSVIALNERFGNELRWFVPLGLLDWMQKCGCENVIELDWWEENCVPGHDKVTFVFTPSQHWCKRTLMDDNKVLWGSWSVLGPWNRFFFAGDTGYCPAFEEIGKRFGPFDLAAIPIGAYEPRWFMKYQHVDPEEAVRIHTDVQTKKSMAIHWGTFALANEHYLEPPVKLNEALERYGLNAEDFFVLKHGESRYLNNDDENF
Measured IC50, listed per entry.
// note: answer is a bare numeric in nM

CN(CCO)c1cc(C(=O)NCC2CC2)nc(N(C)CCc2ccccc2)n1 [Example 30]; 1000

Bench note, human NAPE-PLD (Homo sapiens, UniProt Q6IQ20): entry O=C(NCC1CC1)c1cc(N2CCOCC2)nc(N2CCOC(c3ccccc3)C2)n1 (stereo not drawn) [Example 37] , its IC50 = 1230

Bench note, human NAPE-PLD (Homo sapiens, UniProt Q6IQ20): entry CN(CCc1ccccc1)c1nc(C(=O)NCC2CC2)cc(N2CCN(C(=O)c3ccccc3)CC2)n1 [Example 16] , its IC50 = 7760

Bench note, human NAPE-PLD (Homo sapiens, UniProt Q6IQ20): entry O=C(NCC1CC1)c1cc(N2CCOCC2)nc(N2CCN(C(=O)OCc3ccccc3)C(c3ccccc3)C2)n1 (stereo not drawn) [Example 74] , its IC50 = 3240

Bench note, human NAPE-PLD (Homo sapiens, UniProt Q6IQ20): entry CN(CCc1ccccc1-c1ccccc1)c1nc(C(=O)NCC2CC2)cc(N2CCOCC2)n1 [Example 71] , its IC50 = 490

Bench note, human NAPE-PLD (Homo sapiens, UniProt Q6IQ20): entry CN(CCc1ccccc1)c1nc(C(=O)NCC2CC2)cc(N2CCCC2)n1 [Example 17] , its IC50 = 224

Bench note, human NAPE-PLD (Homo sapiens, UniProt Q6IQ20): entry CN(CCc1ccccc1)c1nc(C(=O)NCC2CC2)cc(N2CCCCC2)n1 [Example 3] , its IC50 = 646

Bench note, human NAPE-PLD (Homo sapiens, UniProt Q6IQ20): entry CCNC(=O)c1cc(N2CCOCC2)nc(N(C)CCc2ccccc2)n1 [Example 4] , its IC50 = 4570

Bench note, human NAPE-PLD (Homo sapiens, UniProt Q6IQ20): entry CN(CCc1ccccc1)c1nc(C(=O)NCC2CC2)cc(N2CCC(c3ccccc3)C2)n1 (stereo not drawn) [Example 29] , its IC50 = 1410

###

tested.target: human NAPE-PLD (Homo sapiens, UniProt Q6IQ20)
metric.name: IC50 (nM)
// note: answer is a bare numeric in nM

Bench note, human NAPE-PLD (Homo sapiens, UniProt Q6IQ20): entry CN(CCc1ccccc1Cl)c1nc(C(=O)NCC2CC2)cc(N2CCOCC2)n1 , its IC50 = 977

###

Measured IC50, listed per entry.
tested.target: human NAPE-PLD (Homo sapiens, UniProt Q6IQ20)
Construct: Full length human cDNA NAPE-PLD was obtained from Natsuo Ueda; made in house; host or cells: HEK293T cells, transient transfection (pcDNA3.1); membrane fraction used
assay.info: In vitro NAPE-PLD activity assay
Type: biochemical
assay.setup: membrane protein fraction of HEK293T cells overexpressing human NAPE-PLD; substrate PED6 1 µM; 30 minutes preincubation at 37 °C
Experimental: Full length human cDNA NAPE-PLD was obtained from Natsuo Ueda^1 and cloned into mammalian expression vector pcDNA3.1, containing a C-terminal Flag-tag and genes for ampicillin and neomycin resistance. All plasmids were grown in XL-10 Z-competent cells and prepped (Maxi Prep, Qiagen). […] Cell pellets are re-suspended in lysis buffer: 20 mM Hepes, 2 mM DTT, 0.25 M sucrose, 1 mM MgCl2, 2.5 U/ml benzonase and incubated 30 minutes on ice. […] Enzyme concentrations are determined using a Bradford assay. […]
// note: answer is a bare numeric in nM

The following compounds have reported results that may help.
O=C(NCC1CC1)c1cc(N2CCOCC2)nc(N(CCc2ccccc2)C2CC2)n1; 1100
CN(CCc1ccccc1)c1cc(C(=O)NCC2CC2)nc(N2CCOCC2)n1; 4070
CN(CCc1ccccc1)c1cc(C(=O)NCC2CC2)cc(N2CCOCC2)n1; 1450
CN(CCc1ccccc1)c1cc(C(=O)NCC2CC2)nc(N(C)CCc2ccccc2)n1; 155
CN(CCc1ccccc1)c1nc(C(=O)NCC2CC2)cc(N2CCC(O)C2)n1 (centres unmarked); 224
COc1ccccc1CCN(C)c1nc(C(=O)NCC2CC2)cc(N2CCOCC2)n1; 776
C#CCNC(=O)c1cc(N2CCOCC2)nc(N(C)CCc2ccccc2)n1; 912

// sample CC(=O)N1CCN(c2cc(C(=O)NCC3CC3)nc(N(C)CCc3ccccc3)n2)CC1 , its IC50 was 1200
